Reported koff values for a set of binders
- tested.system: T1, full length recombinant human 2N4R tau (human, UniProt P10636 1-758)
- T1 construct: bought from rPeptide; pHrodo Red maleimide-labelled where it stands in uptake assays; also called tau1-441; full length tau
- T1 sequence (P10636 other isoform, or with tags, fused parts or gaps limits assumed): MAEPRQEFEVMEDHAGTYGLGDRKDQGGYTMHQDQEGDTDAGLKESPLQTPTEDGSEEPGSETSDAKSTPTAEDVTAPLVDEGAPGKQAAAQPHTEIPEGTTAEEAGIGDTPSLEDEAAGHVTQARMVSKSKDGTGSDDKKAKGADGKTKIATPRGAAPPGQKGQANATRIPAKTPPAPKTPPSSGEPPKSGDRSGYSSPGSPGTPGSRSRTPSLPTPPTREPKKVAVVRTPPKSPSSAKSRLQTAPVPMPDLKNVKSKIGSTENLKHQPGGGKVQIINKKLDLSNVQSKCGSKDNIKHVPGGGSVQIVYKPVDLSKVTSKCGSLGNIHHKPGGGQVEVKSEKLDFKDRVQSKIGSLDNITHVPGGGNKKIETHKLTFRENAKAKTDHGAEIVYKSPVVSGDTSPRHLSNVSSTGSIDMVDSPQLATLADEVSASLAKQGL
- assay.info: SPR SCK, IgG on Protein A, tau in flow
// note: answer is a bare numeric in s⁻¹

Prompt line: For #44 VH4VK2 humanised hIgG1 (antibody, V domains shown, also called VH4Vκ2; Clone VH4VK2 (C)) VH: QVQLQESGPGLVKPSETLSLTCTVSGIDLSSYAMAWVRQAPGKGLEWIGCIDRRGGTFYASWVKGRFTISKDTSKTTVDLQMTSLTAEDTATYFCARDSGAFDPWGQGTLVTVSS VL: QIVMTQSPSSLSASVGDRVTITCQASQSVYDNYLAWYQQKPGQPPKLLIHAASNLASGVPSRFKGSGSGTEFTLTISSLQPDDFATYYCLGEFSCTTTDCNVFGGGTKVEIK , what is its reported koff?
Response line: 0.0247

Prompt line: For #44 VH5VK3 humanised hIgG1 (antibody, V domains shown, also called VH5Vκ3) VH: QVQLQESGPGLVKPSETLSLTCTVSGIDLSSYAMAWVRQAPGKGLEWIGCIDRRGGTFYASWVKGRFTISRDNSKNTLDLQMTSLTAEDTATYYCARDSGAFDPWGQGTLVTVSS VL: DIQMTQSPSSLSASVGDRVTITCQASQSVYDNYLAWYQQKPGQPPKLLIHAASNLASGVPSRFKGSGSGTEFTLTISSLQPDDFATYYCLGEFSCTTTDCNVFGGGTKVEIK , what is its reported koff?
Response line: 0.0406

Prompt line: For #44 VH3VK2 humanised hIgG1 (antibody, V domains shown, also called VH3Vκ2) VH: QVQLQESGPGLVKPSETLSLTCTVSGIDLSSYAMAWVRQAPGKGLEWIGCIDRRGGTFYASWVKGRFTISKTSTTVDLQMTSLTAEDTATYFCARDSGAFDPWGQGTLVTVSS VL: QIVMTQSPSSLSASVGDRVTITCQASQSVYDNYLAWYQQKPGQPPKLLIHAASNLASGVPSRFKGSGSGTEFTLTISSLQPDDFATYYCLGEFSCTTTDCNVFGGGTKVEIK , what is its reported koff?
Response line: 0.0356

The measurements presented in this section are drawn from patent US20250270301A1.
